biological target: c-Src SH2; assay: SH2 binding enrichment of the phosphorylated peptide, bacterial display (enrichment ratio); higher = better substrate or ligand; peptides without Tyr show the background;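 also: peptide library displayed on the E. coli surface as eCPX fusions, selected cells deep-sequenced, score is each peptide's frequency after selection divided by its frequency in the input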
Measure name: SH2 binding enrichment

Take a look at these entries with their results.
PHIKTYMRPSP [TDP1_Y497]	0.695
LREKVYVSLEA [RXRA_Y397_A398V]	1.06
FYLGAYDRFLP [SLC22A5_Y486_V481F]	1.16
FIILIYAMKKK [SLCO1B1_Y645_YF]	0.965

I. FLNSIYKCRDE [ROS1_Y2227_S2229C]
II. RKLASYRSCLL [DHX37_Y1080]
From the recorded data, which exceeds the other in SH2 binding enrichment: I or II ? // output: label of the selected item II
(II: 0.861, I: 0.518)

====

biological target: Hck (UniProt P08631); assay: phosphorylation enrichment, bacterial display (enrichment ratio); higher = better substrate or ligand; peptides without Tyr show the background
Sequence (P08631 whole entry, looked up): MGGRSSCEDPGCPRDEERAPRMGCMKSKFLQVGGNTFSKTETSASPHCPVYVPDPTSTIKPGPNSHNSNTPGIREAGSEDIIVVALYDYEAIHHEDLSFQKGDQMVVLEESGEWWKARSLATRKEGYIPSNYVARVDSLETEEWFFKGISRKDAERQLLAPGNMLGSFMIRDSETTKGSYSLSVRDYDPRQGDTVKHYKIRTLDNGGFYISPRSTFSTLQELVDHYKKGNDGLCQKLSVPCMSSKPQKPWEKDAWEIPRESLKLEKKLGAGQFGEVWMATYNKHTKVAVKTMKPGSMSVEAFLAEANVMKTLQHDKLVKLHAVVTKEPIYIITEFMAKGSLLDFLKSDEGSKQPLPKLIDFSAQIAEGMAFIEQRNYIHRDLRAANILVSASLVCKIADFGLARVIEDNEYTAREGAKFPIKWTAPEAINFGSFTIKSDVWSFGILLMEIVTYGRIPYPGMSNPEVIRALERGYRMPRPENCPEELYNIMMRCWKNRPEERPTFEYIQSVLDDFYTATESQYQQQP
Below is a list of entries, each paired with its recorded phosphorylation enrichment value.
// keep it numeric: no unit symbol after the value

EKQVAYCPSGR [ROS1_Y2323_K2328R]	0.501

Quick one: phosphorylation enrichment of GVRFTYTIDGS [DCX_Y105_I104T_YF] ? 0.496

Entry under review: RIFDYYSARKT [STOX1_Y858_A863T] . Reported phosphorylation enrichment? 0.982

What phosphorylation enrichment value was documented for this sequence, KVVQEYERVII [NPHS2_Y131] ? 0.563

====

biological target: Hck (UniProt P08631); assay: phosphorylation enrichment, bacterial display (enrichment ratio); higher = better substrate or ligand; peptides without Tyr show the background
Measure name: phosphorylation enrichment
// return a plain number; no unit text

Example results:
FGPPQYNIQFS [ERBB2IP_Y977_YF]	0.405
RRNEEYCLLAS [ITK_Y198_D202A]	0.84
TTKGSYSLYVR [HCK_Y180_S183Y]	0.458
IEDPYYGNDFD [ACP1_Y133_S137F]	1.02
KILGRYYETSS [PAX2_Y72_G76S]	0.344

Sample MSRDIYSTDFF [NTRK1_Y676_YF] — what was its phosphorylation enrichment? 4.34

May I ask what phosphorylation enrichment has been recorded for VDGSLYETHPQ [HK1_Y417_K418E] ? 2.09

State the recorded phosphorylation enrichment for this entry: CTTIHYNFLCN [TP53_Y234_M237L_YF] 0.469

====

target: Jak2 (UniProt O60674); assay: phosphorylation enrichment, bacterial display (enrichment ratio); higher = better substrate or ligand; peptides without Tyr show the background
Sequence (O60674 whole entry, looked up): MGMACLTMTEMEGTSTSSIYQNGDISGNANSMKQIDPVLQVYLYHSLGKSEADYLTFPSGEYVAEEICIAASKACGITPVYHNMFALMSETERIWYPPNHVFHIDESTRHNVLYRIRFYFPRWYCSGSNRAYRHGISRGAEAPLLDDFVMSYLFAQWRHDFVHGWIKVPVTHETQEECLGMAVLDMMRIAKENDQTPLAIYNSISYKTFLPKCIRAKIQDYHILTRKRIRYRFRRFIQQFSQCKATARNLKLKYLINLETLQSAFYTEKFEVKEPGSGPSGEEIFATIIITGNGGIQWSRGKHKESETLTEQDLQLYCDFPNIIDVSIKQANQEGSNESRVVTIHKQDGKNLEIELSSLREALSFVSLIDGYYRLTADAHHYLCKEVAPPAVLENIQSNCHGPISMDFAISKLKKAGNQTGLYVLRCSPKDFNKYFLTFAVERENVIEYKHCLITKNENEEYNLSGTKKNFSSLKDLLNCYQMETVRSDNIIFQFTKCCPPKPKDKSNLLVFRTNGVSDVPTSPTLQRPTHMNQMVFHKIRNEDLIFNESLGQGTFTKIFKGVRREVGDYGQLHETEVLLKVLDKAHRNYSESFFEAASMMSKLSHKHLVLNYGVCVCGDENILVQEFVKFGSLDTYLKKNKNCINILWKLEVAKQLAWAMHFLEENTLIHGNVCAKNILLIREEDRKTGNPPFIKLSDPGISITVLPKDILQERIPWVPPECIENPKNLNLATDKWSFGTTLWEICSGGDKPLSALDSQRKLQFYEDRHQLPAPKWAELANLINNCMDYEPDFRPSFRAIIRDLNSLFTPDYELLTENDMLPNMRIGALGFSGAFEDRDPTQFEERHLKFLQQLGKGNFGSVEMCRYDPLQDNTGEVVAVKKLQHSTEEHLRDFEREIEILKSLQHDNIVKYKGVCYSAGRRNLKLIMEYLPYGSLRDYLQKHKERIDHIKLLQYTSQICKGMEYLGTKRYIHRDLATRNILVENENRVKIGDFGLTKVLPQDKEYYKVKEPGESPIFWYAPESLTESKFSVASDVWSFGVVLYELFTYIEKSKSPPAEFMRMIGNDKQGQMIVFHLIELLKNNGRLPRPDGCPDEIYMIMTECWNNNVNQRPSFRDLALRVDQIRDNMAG
Measure name: phosphorylation enrichment
In your answer, state the number alone without any accompanying words.

Solved entries (count: 6):
ARLEFYENEKK [IRS1_Y47_YF]	0.887
VMIFAYLLHRG [PTEN_Y138_C136Y_YF]	0.739
SLNEVYTKNKT [MSH2_Y563_E562V]	0.514
FCVDCYKNFVA [FHL1_Y213_YF]	0.898
INQGPYENHSV [ATP6V1B1_Y462_R465H]	0.68
KKGMIYGGGGG [PSME1_Y249_T244K]	0.487

Then there is this sequence:
Can you look up the measured phosphorylation enrichment of PSQRHYVYYYS [PTEN_Y174_R173H] for me? 4.48

====

test system: c-Abl (mouse); assay: phosphorylation enrichment, bacterial display (enrichment ratio); higher = better substrate or ligand; peptides without Tyr show the background
Measured phosphorylation enrichment values are reported for all entries that follow.
When you answer, write just the number.

Use the examples below as a reference point.
VAHAVYQAVLS [SMG1_Y549]	1.14
KLVQLYGVCTK [BTK_Y461]	0.686
YTGDIYSNSNL [LZTR1_Y141]	0.911
VPLLEYYRDIF [CDAN1_Y712]	0.728
WIPIQCPIISE [NOG_Y222_Y222C]	0.836

// query phosphorylation enrichment value for entry SGIYQYIIAKF [FOXL2_Y83] 6.06
